- measurement-target: full-length ATR (Homo sapiens, UniProt Q13535)
- Construct: Assays were carried out at 25° C. in the presence of 5 nM full-length ATR
- Sequence (Q13535 whole entry): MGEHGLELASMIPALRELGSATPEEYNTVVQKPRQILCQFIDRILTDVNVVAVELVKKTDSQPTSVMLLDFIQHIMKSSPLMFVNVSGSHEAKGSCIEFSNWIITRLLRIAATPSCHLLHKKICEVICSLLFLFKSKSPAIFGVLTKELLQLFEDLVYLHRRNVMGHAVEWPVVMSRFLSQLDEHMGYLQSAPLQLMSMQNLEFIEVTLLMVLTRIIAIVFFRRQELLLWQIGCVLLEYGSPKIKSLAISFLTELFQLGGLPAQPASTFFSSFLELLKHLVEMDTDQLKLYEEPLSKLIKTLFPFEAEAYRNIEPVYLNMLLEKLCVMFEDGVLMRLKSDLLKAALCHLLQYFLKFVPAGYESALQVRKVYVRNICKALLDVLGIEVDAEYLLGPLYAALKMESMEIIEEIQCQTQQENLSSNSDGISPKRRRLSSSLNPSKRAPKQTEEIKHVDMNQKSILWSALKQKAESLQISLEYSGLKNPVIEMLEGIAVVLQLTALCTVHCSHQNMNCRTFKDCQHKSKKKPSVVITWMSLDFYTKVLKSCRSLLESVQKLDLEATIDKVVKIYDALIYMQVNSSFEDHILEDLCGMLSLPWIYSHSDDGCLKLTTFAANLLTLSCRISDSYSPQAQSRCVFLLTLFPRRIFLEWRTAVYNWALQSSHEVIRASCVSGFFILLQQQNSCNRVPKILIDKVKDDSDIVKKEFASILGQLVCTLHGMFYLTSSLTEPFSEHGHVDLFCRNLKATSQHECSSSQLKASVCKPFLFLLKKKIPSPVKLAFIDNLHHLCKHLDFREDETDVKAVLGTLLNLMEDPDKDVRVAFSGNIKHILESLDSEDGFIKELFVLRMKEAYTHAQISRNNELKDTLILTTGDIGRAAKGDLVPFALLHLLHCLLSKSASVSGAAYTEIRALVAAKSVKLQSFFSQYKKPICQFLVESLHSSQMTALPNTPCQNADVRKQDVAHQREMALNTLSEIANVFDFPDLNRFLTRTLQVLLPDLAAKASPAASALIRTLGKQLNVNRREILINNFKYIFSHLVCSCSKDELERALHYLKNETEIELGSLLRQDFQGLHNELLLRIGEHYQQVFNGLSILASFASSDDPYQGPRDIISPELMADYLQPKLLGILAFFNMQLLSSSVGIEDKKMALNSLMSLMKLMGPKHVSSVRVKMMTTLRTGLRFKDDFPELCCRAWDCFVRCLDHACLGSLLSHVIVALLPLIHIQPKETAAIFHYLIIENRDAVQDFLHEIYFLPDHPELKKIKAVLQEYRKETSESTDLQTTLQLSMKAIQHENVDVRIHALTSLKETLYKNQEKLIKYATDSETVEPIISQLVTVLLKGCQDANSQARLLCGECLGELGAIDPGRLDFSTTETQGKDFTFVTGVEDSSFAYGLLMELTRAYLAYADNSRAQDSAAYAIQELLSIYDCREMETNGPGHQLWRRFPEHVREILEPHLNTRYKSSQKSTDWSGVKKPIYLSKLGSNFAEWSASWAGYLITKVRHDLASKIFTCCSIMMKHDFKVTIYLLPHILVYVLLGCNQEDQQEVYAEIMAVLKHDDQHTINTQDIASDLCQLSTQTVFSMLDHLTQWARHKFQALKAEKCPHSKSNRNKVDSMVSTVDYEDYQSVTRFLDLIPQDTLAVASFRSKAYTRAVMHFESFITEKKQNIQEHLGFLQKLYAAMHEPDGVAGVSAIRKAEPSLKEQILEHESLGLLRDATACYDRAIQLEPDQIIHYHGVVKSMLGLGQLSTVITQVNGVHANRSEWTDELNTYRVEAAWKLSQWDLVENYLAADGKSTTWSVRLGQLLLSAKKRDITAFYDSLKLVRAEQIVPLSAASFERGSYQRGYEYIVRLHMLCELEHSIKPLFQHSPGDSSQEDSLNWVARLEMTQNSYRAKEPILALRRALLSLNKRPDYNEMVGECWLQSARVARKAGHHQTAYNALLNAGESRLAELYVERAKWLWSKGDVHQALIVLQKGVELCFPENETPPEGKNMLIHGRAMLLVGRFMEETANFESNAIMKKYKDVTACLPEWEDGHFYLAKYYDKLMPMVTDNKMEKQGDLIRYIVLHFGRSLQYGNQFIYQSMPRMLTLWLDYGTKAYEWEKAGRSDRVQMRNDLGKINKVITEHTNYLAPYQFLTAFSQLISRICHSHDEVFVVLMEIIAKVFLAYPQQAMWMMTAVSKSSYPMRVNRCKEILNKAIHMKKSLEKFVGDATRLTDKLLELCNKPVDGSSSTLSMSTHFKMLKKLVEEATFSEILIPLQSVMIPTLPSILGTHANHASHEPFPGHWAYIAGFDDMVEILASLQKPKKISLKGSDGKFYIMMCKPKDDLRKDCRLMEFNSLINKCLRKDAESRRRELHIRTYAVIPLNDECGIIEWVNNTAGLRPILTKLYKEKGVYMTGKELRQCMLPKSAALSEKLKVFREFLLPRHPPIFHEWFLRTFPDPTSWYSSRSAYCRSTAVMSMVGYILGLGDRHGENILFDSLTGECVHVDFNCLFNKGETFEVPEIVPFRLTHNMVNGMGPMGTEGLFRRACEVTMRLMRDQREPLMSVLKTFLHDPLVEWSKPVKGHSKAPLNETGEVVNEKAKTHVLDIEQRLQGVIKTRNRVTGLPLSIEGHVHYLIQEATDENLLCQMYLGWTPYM
- assay-method-text: ATR Inhibition Assay (radioactive-phosphate incorporation)
- Assay type: biochemical
- protocol-conditions: Ki(app); 5 nM full-length ATR, 10 μM ATP, 800 μM target peptide, 25° C.
pKi: −log10 of the molar value.
Overview of reported pKi across a group of compounds:

Past entries and their recorded results:
{"structure-smiles": "CC(C)S(=O)(=O)c1ccc(-c2cnc3[nH]cc(-c4ccc5[nH]ccc5c4)c3n2)cc1", "result": "7.30 to 8.00"}
{"structure-smiles": "Cc1noc(C)c1-c1c[nH]c2ncc(-c3ccc(S(=O)(=O)C(C)C)cc3)nc12", "result": "< 7.30"}
{"structure-smiles": "CC(C)S(=O)(=O)c1ccc(-c2cnc3[nH]cc(-c4sccc4C(=O)O)c3n2)cc1", "result": "7.30 to 8.00"}
{"structure-smiles": "CC(C)S(=O)(=O)c1ccc(-c2cnc3[nH]cc(-c4cc5ccccc5n4C(=O)OC(C)(C)C)c3n2)cc1", "result": "< 7.30"}
{"structure-smiles": "CC(C)S(=O)(=O)c1ccc(-c2cnc3[nH]cc(-c4cccnc4NC(=O)C(C)(C)C)c3n2)cc1", "result": "< 7.30"}

Input: Need pKi of COc1cc(-c2c[nH]c3ncc(-c4ccc(S(=O)(=O)C(C)C)cc4)nc23)c(F)cn1 , thanks.
Output: < 7.30

Input: Okay, and CC(C)S(=O)(=O)c1ccc(-c2cnc3[nH]cc(-c4cc5cc(Br)ccc5s4)c3n2)cc1 ?
Output: < 7.30

Input: Okay, and CC(C)S(=O)(=O)c1ccc(-c2cnc3[nH]cc(-c4cn[nH]c4)c3n2)cc1 ?
Output: 7.30 to 8.00

----------
- measurement-target: full-length ATR (Homo sapiens, UniProt Q13535)
- Construct: Assays were carried out at 25° C. in the presence of 5 nM full-length ATR
- assay-method-text: ATR Inhibition Assay (radioactive-phosphate incorporation)
- protocol-conditions: Ki(app); 5 nM full-length ATR, 10 μM ATP, 800 μM target peptide, 25° C.
test-readout: Ki

Past entries and their recorded results:
{"molecule": "CC(C)S(=O)(=O)c1ccc(-c2cnc3[nH]cc(-c4cc5c(Cl)cccc5n4C(=O)OC(C)(C)C)c3n2)cc1", "result": "> 50 nM"}
{"molecule": "CC(Oc1cc(-c2c[nH]c3ncc(-c4ccc(S(=O)(=O)C(C)C)cc4)nc23)sc1C(=O)O)c1ccccc1Cl (stereo not drawn)", "result": "≤ 10 nM"}
{"molecule": "CC(C)S(=O)(=O)c1ccc(-c2cnc3[nH]cc(-c4cnc5[nH]ccc5c4)c3n2)cc1", "result": "≤ 10 nM"}
{"molecule": "CC(C)S(=O)(=O)c1ccc(-c2cnc3[nH]cc(-c4ccc(N(C)C)nc4)c3n2)cc1", "result": "10 to 50 nM"}
{"molecule": "CC(C)S(=O)(=O)c1ccc(-c2cnc3[nH]cc(-c4cc(-c5ccccc5)no4)c3n2)cc1", "result": "≤ 10 nM"}
{"molecule": "CC(C)S(=O)(=O)c1ccc(-c2cnc3[nH]cc(-c4cc5ccccc5o4)c3n2)cc1", "result": "10 to 50 nM"}
{"molecule": "CC(C)S(=O)(=O)c1ccc(-c2cnc3[nH]cc(-c4ccc5ncccc5c4)c3n2)cc1", "result": "≤ 10 nM"}
{"molecule": "CC(C)S(=O)(=O)c1ccc(-c2cnc3[nH]cc(-c4cccc(-c5nnn[nH]5)c4)c3n2)cc1", "result": "10 to 50 nM"}

Input: Need Ki of CC(C)S(=O)(=O)c1ccc(-c2cnc3[nH]cc(-c4scc5c4OCCO5)c3n2)cc1 , thanks.
Output: 10 to 50 nM

----------
Overview of reported pKi across a group of molecules:
- measurement-target: full-length ATR (Homo sapiens, UniProt Q13535)
- Construct: Assays were carried out at 25° C. in the presence of 5 nM full-length ATR
- assay-method-text: ATR Inhibition Assay (radioactive-phosphate incorporation)
- protocol-conditions: Ki(app); 5 nM full-length ATR, 10 μM ATP, 800 μM target peptide, 25° C.
pKi: −log10 of the molar value.

Past entries and their recorded results:
{"molecule": "COc1ccccc1-c1c[nH]c2ncc(-c3ccc(S(=O)(=O)C(C)C)cc3)nc12 [Compound I-15]", "measurement-target": "full-length ATR (Homo sapiens, UniProt Q13535)", "pKi": "< 7.30"}
{"molecule": "CC(C)S(=O)(=O)c1ccc(-c2cnc3[nH]cc(-c4csc5ccccc45)c3n2)cc1 [Compound I-44]", "measurement-target": "full-length ATR (Homo sapiens, UniProt Q13535)", "pKi": "< 7.30"}

Input: Need pKi of CC(C)S(=O)(=O)c1ccc(-c2cnc3[nH]cc(-c4ccn(C)n4)c3n2)cc1 [Compound I-49] , thanks.
Output: 7.30 to 8.00

Input: Okay, and CC(C)S(=O)(=O)c1ccc(-c2cnc3[nH]cc(-c4cccnc4)c3n2)cc1 [Compound I-1] ?
Output: 7.30 to 8.00

Input: Okay, and CC(C)S(=O)(=O)c1ccc(-c2cnc3[nH]cc(-c4cc5cc(F)ccc5n4C(=O)OC(C)(C)C)c3n2)cc1 [Compound I-56] ?
Output: < 7.30

Input: Okay, and CC(C)S(=O)(=O)c1ccc(-c2cnc3[nH]cc(-c4cccc5[nH]ccc45)c3n2)cc1 [Compound I-12] ?
Output: < 7.30

Input: Okay, and Cc1ccc(-c2c[nH]c3ncc(-c4ccc(S(=O)(=O)C(C)C)cc4)nc23)s1 [Compound I-26] ?
Output: 7.30 to 8.00

Input: Okay, and COc1ccc(-c2c[nH]c3ncc(-c4ccc(S(=O)(=O)C(C)C)cc4)nc23)cn1 [Compound I-31] ?
Output: < 7.30

Input: Okay, and CC(C)S(=O)(=O)c1ccc(-c2cnc3[nH]cc(-c4cncc(C(C)(C)O)c4)c3n2)cc1 [Compound I-66] ?
Output: ≥ 8.00

Input: Okay, and CC(C)S(=O)(=O)c1ccc(-c2cnc3[nH]cc(-c4cnc(N)cn4)c3n2)cc1 [Compound I-9] ?
Output: < 7.30

Input: Okay, and CC(C)S(=O)(=O)c1ccc(-c2cnc3[nH]cc(-c4ccccc4O)c3n2)cc1 [Compound I-14] ?
Output: 7.30 to 8.00

Input: Okay, and COCc1ccccc1-c1c[nH]c2ncc(-c3ccc(S(=O)(=O)C(C)C)cc3)nc12 [Compound I-17] ?
Output: < 7.30

Input: Okay, and CC(C)S(=O)(=O)c1ccc(-c2cnc3[nH]cc(-c4ccsc4)c3n2)cc1 [Compound I-22] ?
Output: 7.30 to 8.00

Input: Okay, and CC(C)S(=O)(=O)c1ccc(-c2cnc3[nH]cc(-c4ccccc4C#N)c3n2)cc1 [Compound I-8] ?
Output: < 7.30

Input: Okay, and COc1ncc(-c2c[nH]c3ncc(-c4ccc(S(=O)(=O)C(C)C)cc4)nc23)cc1C [Compound I-38] ?
Output: 7.30 to 8.00

Input: Okay, and COc1cccc(-c2c[nH]c3ncc(-c4ccc(S(=O)(=O)C(C)C)cc4)nc23)c1 [Compound I-30] ?
Output: 7.30 to 8.00

----------
- measurement-target: full-length ATR (Homo sapiens, UniProt Q13535)
- Construct: Assays were carried out at 25° C. in the presence of 5 nM full-length ATR
- assay-method-text: ATR Inhibition Assay (radioactive-phosphate incorporation)
- Assay type: biochemical
- protocol-conditions: Ki(app); 5 nM full-length ATR, 10 μM ATP, 800 μM target peptide, 25° C.
Overview of reported Ki across a group of molecules:

Past entries and their recorded results:
{"structure-smiles": "Cc1ccsc1-c1c[nH]c2ncc(-c3ccc(S(=O)(=O)C(C)C)cc3)nc12", "Ki": "> 50 nM"}
{"structure-smiles": "CC(C)S(=O)(=O)c1ccc(-c2cnc3[nH]cc(-c4cscc4C#N)c3n2)cc1", "Ki": "> 50 nM"}
{"structure-smiles": "CC(C)S(=O)(=O)c1ccc(-c2cnc3[nH]cc(-c4cccc5cnccc45)c3n2)cc1", "Ki": "> 50 nM"}
{"structure-smiles": "CC(C)S(=O)(=O)c1ccc(-c2cnc3[nH]cc(-c4ccccc4)c3n2)cc1", "Ki": "> 50 nM"}
{"structure-smiles": "CC(C)S(=O)(=O)c1ccc(-c2cnc3[nH]cc(C#Cc4ccccc4)c3n2)cc1", "Ki": "10 to 50 nM"}
{"structure-smiles": "COc1ncc(-c2c[nH]c3ncc(-c4ccc(S(=O)(=O)C(C)C)cc4)nc23)cn1", "Ki": "10 to 50 nM"}

Input: Need Ki of CC(C)S(=O)(=O)c1ccc(-c2cnc3[nH]cc(-c4ccc(N)nc4)c3n2)cc1 , thanks.
Output: ≤ 10 nM

Input: Okay, and COc1ccc2c(c1)cc(-c1c[nH]c3ncc(-c4ccc(S(=O)(=O)C(C)C)cc4)nc13)n2C(=O)OC(C)(C)C ?
Output: > 50 nM
